System: SK-MEL-5
Test: NCI tumour cell line growth inhibition, 48 h
The source made the active and inactive calls. Rule as the data show it: active = GI50 up to about 1.1 µM and inactive = higher.
Examples of molecules with documented GI50 follow.
PROPERTY: GI50

{"columns": ["MOLECULE", "PROPERTY", "RESULT"],
 "data": [
  ["CCOC(=O)c1ccc(Nc2nc3cc(C(F)(F)F)ccc3nc2-c2ccccc2)cc1", "GI50", "65 µM (inactive)"],
  ["O=C1/C(=C\\c2cccc(Oc3ccccc3)c2)SC(c2ccccc2)N1Cc1ccccc1 (stereo not drawn)", "GI50", "14.8 µM (inactive)"],
  ["Nc1nc2c3c(ncn3CC(O)CO2)n1 (stereo not drawn)", "GI50", "> 100 µM (inactive)"]
]}

###

Test system: NCI-H460
Assay: NCI tumour cell line growth inhibition, 48 h
Activity calls are given as the source filed them. Rule as the data show it: active = GI50 up to about 1.1 µM and inactive = higher.
PROPERTY: GI50

{"columns": ["COMPOUND", "PROPERTY", "RESULT"],
 "data": [
  ["C/C=C(/C)C(=O)O[C@H]1CCN2CC=C(COC(=O)[C@@](O)([C@H](C)OC)C(C)(C)O)[C@H]12", "GI50", "> 10 µM (inactive)"],
  ["CCCCCCCCCCCCCCCCNCC(O)CN (stereo not drawn)", "GI50", "1.84 µM (inactive)"],
  ["COc1cc2c(cc1OC)C(Cc1cc(Br)c(OC)c(OC)c1)=[N+](C)CC2", "GI50", "58.1 µM (inactive)"]
]}

###

System: Malme-3M
Assay: NCI tumour cell line growth inhibition, 48 h
Calls of active or inactive are those of the source. Rule as the data show it: active = GI50 up to about 1.1 µM and inactive = higher.

{"columns": ["MOLECULE", "GI50"],
 "data": [
  ["Cc1ccc2c(/C=C/c3ccc(N(C)C)cc3)ccc(C(C)C)cc1-2", "> 100 µM (inactive)"],
  ["C=CCOCn1cc(C)c(=O)[nH]c1=O", "> 100 µM (inactive)"],
  ["CCOc1ccc(-c2nc(-c3oc4ccccc4c(=O)c3OC(C)=O)cs2)cc1", "> 10 µM (inactive)"],
  ["O=C(NC1=NC2C=CC([N+](=O)[O-])=CC2S1)C(=O)Nn1c(S)nc2ccccc2c1=O (stereo unspecified)", "80 µM (inactive)"],
  ["C[C@@H]1C[C@]2(C[C@@H](C)C3[C@@H](CC4(C)[C@@H]5CCC6C(C)(C)OC(=O)C=C[C@]67C[C@@]5(CC[C@]34C)OO7)O2)OC1=O (stereo partly specified)", "37.9 µM (inactive)"],
  ["C/C(=N\\Nc1ccccc1)c1sc(-c2nc(C)c(/C(C)=N/Nc3ccccc3)s2)nc1C", "16.1 µM (inactive)"],
  ["NC(=O)C1=CC2C3C=CC2(O)C(=O)OC3O1 (stereo unspecified)", "1.82 µM (inactive)"],
  ["N#CCCN(CCC#N)c1ccc(/C=C2\\N=C(COc3ccc(Cl)cc3Cl)OC2=O)cc1", "> 100 µM (inactive)"],
  ["O=C(N/C(=C\\c1ccc(/C=C(\\NC(=O)c2ccccc2)c2nc3c(O)nc(S)nc3[nH]2)cc1)c1nc2c(O)nc(S)nc2[nH]1)c1ccccc1", "> 100 µM (inactive)"],
  ["CC(C)c1c2[nH]c3ccccc3c2c(C(C)C)c2[nH]c3ccccc3c12", "> 51.4 µM (inactive)"],
  ["O=C1N(c2ccccc2)N=C2c3ccncc3C3=NN(c4ccccc4)C(=O)C123 (stereo unspecified)", "> 100 µM (inactive)"]
]}

meta.source: ChEMBL document CHEMBL1201862
